Molecular target: hKir2.1 (Homo sapiens (Human), UniProt P63252)
Sequence (P63252 whole entry): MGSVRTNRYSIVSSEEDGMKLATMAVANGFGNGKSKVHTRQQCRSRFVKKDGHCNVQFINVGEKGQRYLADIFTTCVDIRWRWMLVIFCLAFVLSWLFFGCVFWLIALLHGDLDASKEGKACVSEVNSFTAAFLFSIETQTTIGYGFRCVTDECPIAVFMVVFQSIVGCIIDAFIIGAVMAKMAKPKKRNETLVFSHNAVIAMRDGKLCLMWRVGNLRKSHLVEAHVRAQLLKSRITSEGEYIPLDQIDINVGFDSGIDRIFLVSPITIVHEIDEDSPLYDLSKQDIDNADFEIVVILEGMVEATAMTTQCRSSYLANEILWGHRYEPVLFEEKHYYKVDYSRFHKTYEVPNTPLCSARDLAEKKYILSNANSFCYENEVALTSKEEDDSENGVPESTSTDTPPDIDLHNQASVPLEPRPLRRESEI
Assay: thallium (Tl+) flux assay
Type: cell-based
Conditions: means (n = 3), selectivity panel; read-out: IC50 μM (95% Cl)
result type: IC50 (µM)
Give the value, in units of µM, as a plain number.

Could you share which IC50 value was measured for `O=C(Cn1nc(C(F)(F)F)c2c1CCCC2)N1CCCc2ccccc21` ? 12.7

----------
Biological target: UniProt:A0A075M2J8
Sequence (A0A075M2J8 1-555): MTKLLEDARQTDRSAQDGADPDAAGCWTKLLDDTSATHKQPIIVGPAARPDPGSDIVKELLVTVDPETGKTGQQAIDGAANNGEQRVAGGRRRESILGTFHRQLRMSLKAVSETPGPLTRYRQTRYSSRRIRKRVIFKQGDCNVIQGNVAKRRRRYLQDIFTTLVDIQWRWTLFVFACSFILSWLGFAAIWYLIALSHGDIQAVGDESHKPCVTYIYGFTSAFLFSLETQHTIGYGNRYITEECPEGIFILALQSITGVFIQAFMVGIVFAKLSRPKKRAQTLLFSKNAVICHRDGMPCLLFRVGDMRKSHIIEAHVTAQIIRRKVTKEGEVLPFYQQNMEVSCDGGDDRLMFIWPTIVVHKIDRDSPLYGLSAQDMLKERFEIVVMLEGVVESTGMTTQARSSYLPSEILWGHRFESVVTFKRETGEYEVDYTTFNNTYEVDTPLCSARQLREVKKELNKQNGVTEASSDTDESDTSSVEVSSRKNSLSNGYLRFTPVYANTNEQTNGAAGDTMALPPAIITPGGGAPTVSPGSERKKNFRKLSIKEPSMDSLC
Assay: thallium (Tl+) flux assay
Assay type: cell-based
Conditions: SAR libraries; read-out: AnKir1 IC50
result type: IC50

Solved cases below.
>>> df
                                   molecule  result_type  reported_measurement
0        O=C(CN1CCCc2ccccc21)N1CCCc2ccccc21         IC50                  8 µM
1  O=C(Cn1nc(C(F)(F)F)c2c1CCCC2)N1CCCC2CCCCC21 (centres unmarked)         IC50                6.7 µM
2       O=C1CCCc2c1ccn2CC(=O)N1CCCc2ccccc21         IC50               12.1 µM
3  CC1CC(C)CN(C(=O)Cn2nc(C(F)(F)F)c3c2CCCC3)C1 (centres unmarked)         IC50                4.5 µM
4         O=C(Cn1ncc2c1CCOC2)N1CCCc2ccccc21         IC50                2.4 µM
5  O=C(Cn1nc(C(F)(F)F)c2c1CCCC2)N1CCCC(c2ccccc2)C1 (centres unmarked)         IC50                5.6 µM
6  O=C(Cn1nc(C(F)(F)F)c2c1CCCC2)N1CCOc2ccccc21         IC50                4.6 µM

Now, please, on to the next molecule.
Could you share which IC50 value was measured for `O=C(Cn1nc(C(F)(F)F)c2c1CCCC2)N1CCCc2ccccc21` ? 2.3 µM
